system: MEK1; construct: gene MAP2K1; settings: concentration: 1 μM, replicates: in singlicate; n = 1;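 note: KINOMEscan kinase panel screen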
test-readout: %Inh (%)
Just the number in %, nothing appended.

Task item: Supply %Inh measured with MEK1 for `CCC(=O)c1c(-c2ccccc2)c2cc(Cl)ccc2c(=O)n1Cc1ccc(C(=O)O)cc1` .
Reply: 0

Task item: Supply %Inh measured with MEK1 for `OCCCNc1nccc(-c2c(-c3cccc(C(F)(F)F)c3)nn3cc(C(F)(F)F)ccc23)n1` .
Reply: 0

Task item: Supply %Inh measured with MEK1 for `Fc1cccc(CSc2nnc(-c3ccc4c(c3)CCO4)o2)c1` .
Reply: 3

Task item: Supply %Inh measured with MEK1 for `COc1cc2ncn(-c3cc(OCc4ccncc4)c(C(N)=O)s3)c2cc1OC` .
Reply: 3

Task item: Supply %Inh measured with MEK1 for `Cc1nc(N(C)[C@H]2CN(C(=O)CC#N)CC[C@H]2C)c2cc[nH]c2n1` .
Reply: 2
